Measured Drug uptake values are reported for all entries that follow.
System: A549
Assay: Drug uptake in human A549 cells assessed as intracellular 5-aminolaevulinic acid level per mg of protein at 0.1 mM after 4 hrs
Format: ADME, cell-based
Conditions: a549, 4 h, 100 µM
State the value, then name its unit.

Entry `NCC(=O)CCC(=O)O` needs its Drug uptake filled in; supply it.
0.08 µg/mg

Give recorded Drug uptake. `COC(=O)CCC(=O)CNC(=O)[C@H](Cc1ccccc1)NC(C)=O`
0.38 µg/mg

====

Test system: PAM212
Assay: Phototoxicity against mouse PAM212 cells assessed as cell viability at 0.01 mM after 4 hrs irradiated with 2.5 J/cm2 blue light by MTT assay relative to control
Assay type: functional, cell-based
Calls of active or inactive are those of the source. The rule behind the calls is not given here.
OUTCOME MEASURE: Activity

CCCCCCOC(=O)CCC(=O)CNC(=O)[C@H](Cc1ccccc1)NC(C)=O    Active
COC(=O)CCC(=O)CNC(=O)[C@H](Cc1ccccc1)NC(C)=O    Active
COC(=O)CCC(=O)CNC(=O)[C@H](CCSC)NC(C)=O    Active

====

System: PAM212
Assay: Drug uptake in mouse PAM212 cells assessed as PpIX production per mg of protein at 0.1 mM after 4 hrs
Assay type: ADME, cell-based
Details: pam212, 4 h, 100 µM
Could you label it 1 if measured Drug uptake is 30 ng/mg or higher, and 0 otherwise?

COC(=O)CCC(=O)CNC(=O)[C@H](Cc1c[nH]c2ccccc12)NC(C)=O    0
COC(=O)CCC(=O)CNC(=O)[C@H](CCCCN)NC(C)=O    0
COC(=O)CCC(=O)CNC(=O)[C@H](CC(=O)O)NC(C)=O    0

Drug uptake >= 30 ng/mg for `CCCCCCOC(=O)CCC(=O)CNC(=O)[C@H](Cc1ccccc1)NC(C)=O` ?
1

Reported Drug uptake at or above 30 ng/mg? `CC[C@H](C)[C@H](NC(C)=O)C(=O)NCC(=O)CCC(=O)OC`
1

Given the entry `NCC(=O)CCC(=O)O` , answer whether its Drug uptake meets or surpasses 30 ng/mg.
1

====

System: PAM212
Assay: Drug uptake in mouse PAM212 cells assessed as PpIX production per mg of protein at 1 mM after 4 hrs
Assay type: ADME, cell-based
Settings: pam212, 4 h, 1000 µM
OUTCOME MEASURE: Drug uptake (ng/mg)
Enter your answer as a number in ng/mg; do not include the unit.

COC(=O)CCC(=O)CNC(=O)[C@@H](Cc1ccccc1)NC(C)=O    -2.99
COC(=O)CCC(=O)CNC(=O)[C@H](C)NC(C)=O    12.9

Item `CCCCCCOC(=O)CCC(=O)CNC(=O)[C@H](Cc1ccccc1)NC(C)=O` : provide Drug uptake
247

Assign Drug uptake to the following record: `COC(=O)CCC(=O)CNC(=O)[C@H](Cc1ccccc1)NC(C)=O`
295

====

# Drug uptake per record follows
Test system: PAM212
Assay: Drug uptake in mouse PAM212 cells assessed as intracellular 5-aminolaevulinic acid level per mg of protein at 0.1 mM after 4 hrs
Assay type: ADME, cell-based
Conditions: pam212, 4 h, 100 µM

Here's what some known entries look like.
COC(=O)CCC(=O)CNC(=O)[C@H](Cc1ccccc1)NC(C)=O    2.9 µg/mg
CC[C@H](C)[C@H](NC(C)=O)C(=O)NCC(=O)CCC(=O)OC    1.64 µg/mg
COC(=O)CCC(=O)CNC(=O)[C@H](CCC(=O)O)NC(C)=O    1.2 µg/mg
COC(=O)CCC(=O)CNC(=O)[C@H](CC(C)C)NC(C)=O    2.8 µg/mg
NCC(=O)CCC(=O)O    0.81 µg/mg

Look up and report measured Drug uptake for this entry: `COC(=O)CCC(=O)CNC(=O)[C@H](CCCCN)NC(C)=O`
0.68 µg/mg

Give Drug uptake for the following compound: `COC(=O)CCC(=O)CNC(=O)[C@H](Cc1c[nH]c2ccccc12)NC(C)=O`
2.41 µg/mg

Please give measured Drug uptake of the following entry: `COC(=O)CCC(=O)CNC(=O)[C@H](CO)NC(C)=O`
0.5 µg/mg

Given `COC(=O)CCC(=O)CNC(=O)[C@H](CCSC)NC(C)=O` , respond with its Drug uptake.
3.28 µg/mg

# return recorded Drug uptake for entry `CCCCCCOC(=O)CCC(=O)CNC(=O)[C@H](Cc1ccccc1)NC(C)=O`
4.14 µg/mg

Using known records, supply Drug uptake for `COC(=O)CCC(=O)CNC(=O)[C@H](CC(=O)O)NC(C)=O`
0.41 µg/mg

====

Experiment: Chromatographic hydrophobicity index in methanol solution under isocratic conditions at pH 6.8
Type: physicochemical
Classification field: enter Y for CHI values not below 40, N for values below it.

Solved cases below.
COC(=O)CCC(=O)CNC(=O)[C@H](CCC(=O)O)NC(C)=O    N
CC[C@H](C)[C@H](NC(C)=O)C(=O)NCC(=O)CCC(=O)OC    Y
COC(=O)CCC(=O)CNC(=O)[C@H](CCCCN)NC(C)=O    N
COC(=O)CCC(=O)CNC(=O)[C@@H](NC(C)=O)C(C)C    Y
COC(=O)CCC(=O)CNC(=O)[C@@H](C)NC(C)=O    N

Reported CHI reaches at least 40 for `COC(=O)CCC(=O)CNC(=O)[C@H]1CCCN1C(C)=O` ?
N

Say whether `COC(=O)CCC(=O)CNC(=O)[C@H](C)NC(C)=O` shows CHI of 40 or more.
N

Is the recorded value of CHI equal to or greater than 40 for this compound? `CCCCCCOC(=O)CCC(=O)CNC(=O)[C@H](Cc1ccccc1)NC(C)=O`
Y

Does `COC(=O)CCC(=O)CNC(=O)[C@H](Cc1ccccc1)NC(C)=O` have a reported CHI of at least 40?
Y

Entry `COC(=O)CCC(=O)CNC(=O)[C@H](CCSC)NC(C)=O` : is its CHI no less than 40?
Y

Reported CHI reaches at least 40 for `COC(=O)CCC(=O)CNC(=O)[C@H](Cc1c[nH]c2ccccc12)NC(C)=O` ?
N

====

Parameter Drug uptake: see the listing below.
Test system: A549
Assay: Drug uptake in human A549 cells assessed as intracellular 5-aminolaevulinic acid level per mg of protein at 0.1 mM after 4 hrs
Format: ADME, cell-based
Settings: a549, 4 h, 100 µM
Provide only the numeric value, understood in µg/mg.

Examples with their reported Drug uptake follow.
CCCCCCOC(=O)CCC(=O)CNC(=O)[C@H](Cc1ccccc1)NC(C)=O    1.63
COC(=O)CCC(=O)CNC(=O)[C@H](CC(C)C)NC(C)=O    0.2

Shifting focus to the molecule that follows.
Please supply the value of reported Drug uptake for the item `COC(=O)CCC(=O)CNC(=O)[C@H](Cc1c[nH]c2ccccc12)NC(C)=O`
0.23
